Source listed as ChEMBL document CHEMBL5236549.

# assay remarks: Total clearance in monkey at 5 mg/kg,iv by LC/MS/MS analysis
# Type: ADME, organism-based, Macaca mulatta
# experimental context: rhesus monkey, in vivo
parameter: clearance (mL/min/kg)
Write the answer as a number in mL/min/kg, unit excluded.

Ask: Given the compound "C[S@@+]([O-])[C@@H]1CC[C@@H]2CN1C(=O)N2O[C@H](F)C(=O)[O-].[Na+]" , write its reported clearance.
Result: 6.15

====

Quick reference: Cmax of the listed items.
# assay remarks: Cmax in dog at 10 mg/kg,po by LC/MS/MS analysis
# Type: ADME, organism-based, Canis lupus familiaris
# Parameters: dose 10 mg/kg, route po
# experimental context: in vivo
Write the answer as a number in ng/mL, unit excluded.

Completed entries (count: 2):
CCOC(=O)[C@@H](F)ON1C(=O)N2C[C@H]1CC[C@H]2[S@@+](C)[O-] | 10600
C[S@@+]([O-])[C@@H]1CC[C@@H]2CN1C(=O)N2O[C@H](F)C(=O)OC1CCCCC1 | 15800

Ask: Given the compound "CC(C)OC(=O)[C@@H](F)ON1C(=O)N2C[C@H]1CC[C@H]2[S@@+](C)[O-]" , write its reported Cmax.
Result: 7390
